Target: T1, recombinant cyno ENTPD2 extracellular domain (residues 29-462) with C-terminal Avi-His6 tag (cynomolgus macaque, UniProt Q9Y5L3 29-462 (human entry))
T1 construct: also called cynomologus (cyno) ENTPD2 ECD
T1 chain (part 1 of 2): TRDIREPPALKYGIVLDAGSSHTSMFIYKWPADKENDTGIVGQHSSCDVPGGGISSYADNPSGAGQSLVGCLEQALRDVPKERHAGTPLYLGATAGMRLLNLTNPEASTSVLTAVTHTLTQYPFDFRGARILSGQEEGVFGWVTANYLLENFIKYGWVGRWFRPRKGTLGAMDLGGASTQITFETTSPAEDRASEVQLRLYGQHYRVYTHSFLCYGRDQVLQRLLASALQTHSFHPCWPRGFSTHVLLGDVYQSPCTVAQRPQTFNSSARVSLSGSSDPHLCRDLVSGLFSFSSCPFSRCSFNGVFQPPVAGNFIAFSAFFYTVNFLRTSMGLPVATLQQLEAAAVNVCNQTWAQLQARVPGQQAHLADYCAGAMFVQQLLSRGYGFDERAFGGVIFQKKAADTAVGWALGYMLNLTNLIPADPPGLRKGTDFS
T1 chain (part 2 of 2): HHHHHH
Experiment: SPR Biacore, mAb captured, ECD analyte, 25C
measured.endpoint: kon (M⁻¹ s⁻¹)
Note: unit M⁻¹ s⁻¹ is implicit; provide only the numeric part.

Solved entries:
- binder: "ANTI-HUMAN ENTPD2 MAB3 (antibody, human IgG1, kappa, V domains shown, humanized from mAb17; human IgG1, kappa; also called Anti-ENTPD2 mAb3) VH: QVQLVQSGAEVVKPGASVKISCKASGYTFTDYNMDWVKQAPGQRLEWIGDINPKYDISTYNQQFKGKATITVDTSASTAYMELSSLRSEDTAVYYCARRGFFLYYGINYYYFDVWGQGTLVTVSS VL: EIVLTQSPATLSASPGERITLSCSASSSVSYIHWYQQKPGQAPRLLIYSTSNLASGIPARFSGSGSGTFYTLTISSVEPEDAAVYYCHQWSSYPWTFGGGTKLEIKR"
  kon (M⁻¹ s⁻¹): 450000
- binder: "ANTI-HUMAN ENTPD2 MAB5 (antibody, human IgG1, kappa, V domains shown, humanized and optimized from mAb16; human IgG1, kappa; also called Anti-ENTPD2 mAb5) VH: QIQLQESGPGLVKPSQTLSLTCTVSGYSITSGYYWNWIRQHPGKGLEWIGYISYDADNNYNPSLKNRVTISRDTSKNQFSLKLSSVTAADTAVYYCAGGYYRYGLGSYRGSYYYVMDYWGQGTTVTVSS VL: ETVLTQSPATLSVSPGERATISCKASQSVDYDGNSYMNWYQQKPGQAPRLLIYAASNLESGIPARFSGSGSGTDFTLTISSVEPEDAATYYCQQSNEDPPTFGGGTKLEIKR"
  kon (M⁻¹ s⁻¹): 290000

Moving on to the next binder.
What value of kon has been reported for the following binder? ANTI-HUMAN ENTPD2 MAB9 (antibody, human IgG1, lambda, V domains shown, also called Anti-ENTPD2 mAb9) VH: QVQLVQSGAEVKKPGSSVKVSCKASGGTFDSYAVSWVRQAPGQGLEWMGRIVPWLGHTQYAQKFQGRVTITADESTSTAYMELSSLRSEDTAVYYCARESPGYRYSFDVWDQGTLVTVSS VL: SYELTQPLSVSVALGQTARITCSGDAIGEKYVYWYQQKPGQAPVLVIYDDNNRPSGIPERFSGSNSGNTATLTISRAQAGDEADYYCASYDLQQARWVFGGGTKLTVLG 990000
